// Ki collected for 5-hydroxytryptamine receptor 1A (Rattus norvegicus)

- compound: "O=C(CCCN1CCC(c2noc3cc(F)ccc23)CC1)c1cc2c3c(c1F)CCC(=O)N3CC2"
  Ki: "25.3 nM"
- compound: "O=C1CCc2cc(C(O)CCCN3CCC(c4noc5cc(F)ccc45)CC3)cc3c2N1CCC3 (stereo not given)"
  Ki: "79.1 nM"
- compound: "Cc1cccc(N2CCN(CCC(=O)c3cc4c5c(c3)CCC(=O)N5CCC4)CC2)c1C"
  Ki: "196 nM"
- compound: "O=C1CCc2cc(CCCN3CCN(c4cccc(Cl)c4Cl)CC3)cc3c2N1CCC3"
  Ki: "196 nM"
- compound: "O=C1CCc2cc(C(O)CCCCN3CCC(c4noc5cc(F)ccc45)CC3)cc3c2N1CC3 (stereo not given)"
  Ki: "12 nM"
